Biological target: HLA-B*5301 (human)
Experiment: competition vs 125I-labeled standard peptide, purified HLA
pIC50 overview
Keep it numeric: pIC50 is minus log10 of the concentration in mol/L.

Worked set:
{"columns": ["Binder", "Obs value"],
 "data": [
  ["FPAEQRASPL (10-mer analog of the HER2/neu peptide starting at position 642) [Her2/neu.642.F1]", 5.07],
  ["FPIKWMAI (8-mer analog of the HER2/neu peptide starting at position 884) [Her2/neu.884.F1I8]", 6.03],
  ["FPYDGIPA (8-mer analog of the HER2/neu peptide starting at position 921) [Her2/neu.921.F1]", 5.21],
  ["FPLTSIISA (9-mer analog of the HER2/neu peptide starting at position 649; same label as the 10-mer in r43) [Her2/neu.649.F1, 9-mer]", 5.52],
  ["FPSGAMPNQI (the label names only F1 though the C-terminus is I) [Her2/neu.701.F1]", 6.11]
]}

Look up and report measured pIC50 for this entry: FPYVSRLL (8-mer analog of the HER2/neu peptide starting at position 779; same label as the 10-mer in r56) [Her2/neu.779.F1, 8-mer] 6.24

Look up and report measured pIC50 for this entry: FPKANKEII (9-mer analog of the HER2/neu peptide starting at position 760) [Her2/neu.760.F1I9] 5.15

Look up and report measured pIC50 for this entry: MPNQAQMRILI (11-mer analog of the HER2/neu peptide starting at position 706) [Her2/neu.706.I11] 7.92
